molecular target: C-C chemokine receptor type 5 (Homo sapiens, UniProt P51681); assay: Ability to inhibit binding of [125I]-MIP-1 alpha to C-C chemokine receptor type 5 in Chinese hamster ovary (CHO) cell membranes
Sequence (P51681 whole entry): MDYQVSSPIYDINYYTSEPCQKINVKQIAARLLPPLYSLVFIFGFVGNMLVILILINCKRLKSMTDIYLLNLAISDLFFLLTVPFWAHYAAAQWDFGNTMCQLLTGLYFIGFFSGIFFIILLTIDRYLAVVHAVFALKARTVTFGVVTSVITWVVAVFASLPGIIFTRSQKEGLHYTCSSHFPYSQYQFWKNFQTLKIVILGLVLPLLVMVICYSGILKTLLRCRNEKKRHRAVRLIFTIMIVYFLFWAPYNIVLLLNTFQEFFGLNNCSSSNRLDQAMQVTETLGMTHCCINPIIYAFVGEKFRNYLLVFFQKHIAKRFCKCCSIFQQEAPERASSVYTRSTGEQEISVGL
observable: IC50 (nM)

compound	observable	recorded-number
O=S(=O)(c1cccs1)N1CC(CN2CCC(O)(CCCc3ccccc3)CC2)[C@@H](c2ccccc2)C1 (stereo partly specified)	IC50	20

I. O=S(=O)(c1ccc(-c2ccccn2)s1)N1C[C@H](CN2CCC(O)(CCCc3ccccc3)CC2)[C@@H](c2ccccc2)C1
II. c1ccc(CCCC2CCN(C[C@H]3CN(CC4CCCCC4)C[C@@H]3c3ccccc3)CC2)cc1
III. O=S(=O)(c1cccs1)N1C[C@H](CN2CCC(CCCc3ccccc3)CC2)[C@@H](c2ccccc2)C1
IV. OC1(CCCc2ccccc2)CCN(C[C@H]2CN(CC3CCCCC3)C[C@@H]2c2ccccc2)CC1
V. O=S(=O)(c1ccc(-c2ccccn2)s1)N1C[C@H](CN2CCC(CCCc3ccccc3)CC2)[C@@H](c2ccccc2)C1
Input: Output the entries ranked by IC50 from maximum down to minimum. // respond by listing labels in the order requested
Output: V, I, III, II, IV

----------
molecular target: C-C chemokine receptor type 5 (Homo sapiens, UniProt P51681); assay: Ability to inhibit binding of [125I]-MIP-1 alpha to C-C chemokine receptor type 5 in Chinese hamster ovary (CHO) cell membranes.
pIC50: −log10 of the molar value.
observable: pIC50

compound	pIC50
CN(CC(CCN1CCC(O)(CCCc2ccccc2)CC1)c1ccccc1)S(=O)(=O)c1ccc(-c2ccccn2)s1 (centres undefined)	8.40

a. CN(CC(CCN1CCC(O)(CCCc2ccccc2)CC1)c1ccccc1)S(=O)(=O)c1cccs1 (centres undefined)
b. CN(CC(CCN1CCC(CCCc2ccccc2)CC1)c1ccccc1)S(=O)(=O)c1ccc(-c2ccccn2)s1 (centres undefined)
Input: Compare a and b by numeric pIC50 and name the larger one. Give the label under which the chosen entry appears.
Output: b
(b: 8.70, a: 8.19)
